test_target: human GLP-1 receptor (human, UniProt P43220 24-463)
experiment: cell-based or functional assay
Bridge positions count the residues as written; N and C are the ends. Square brackets hold non-standard residues; d marks the D form. Ends that are not written are not given here. Orn = NCCC[C@H](N)C(=O)O
# hGLP-1 R EC50 (cAMP) annotations
assay_metric: hGLP-1 R EC50 (cAMP) (nM)

{"binder": "HGEGTFTSDLSKQMEKEAVRLFIEWLKN[Peg3][Peg3]YGWLDF-NH2 [[Lys16]Exendin-4(1-28)-Peg3-Peg3-[Leu4]Gastrin6]", "unit_annotation": "nM", "measured_value": 0.032}
{"binder": "HGEGTFTSELSKYLEEEAVRLFIEFLKYGWLDF-NH2 [[Glu9,Leu14,Phe25,Tyr13]Exendin-4(1-27)-[Leu4]Gastrin6]", "unit_annotation": "nM", "measured_value": 0.11}
{"binder": "HGEGTFTSELSKYLEEEAVRLFIEFLK[Orn][Peg3]WLDF-NH2 [[Glu9,Leu14,Phe25,Tyr13]Exendin-4(1-27)-Orn-Peg3-[Leu2]Gastrin4]", "unit_annotation": "nM", "measured_value": 0.046}
{"binder": "HGEGTFTSDLSKQMEEEAVKLFIEWLKN[Peg3][Peg3]YGWLDF-NH2 (lactam 16-20) [Side chain-cyclo([Glu16,Lys20]Exendin-4(1-28)-Peg3-Peg3-[Leu4]Gastrin6]", "unit_annotation": "nM", "measured_value": 0.026}
{"binder": "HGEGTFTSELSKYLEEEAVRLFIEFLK[Peg3][Peg3]YGWLDF-NH2 [[Glu9,Leu14,Phe25,Tyr13]Exendin-4(1-27)-Peg3-Peg3-[Leu4]Gastrin6]", "unit_annotation": "nM", "measured_value": 0.046}
{"binder": "HGEGTFTSDLSKQMEEEAVRLFIEWLKDXXYGWLDF (Peg3-Peg3 linker; C-terminal amide) [[Asp28]Exendin-4(1-28)-Peg3-Peg3-[Leu4]Gastrin6]", "unit_annotation": "nM", "measured_value": 0.061}
